# Target under test: Androgen receptor (Homo sapiens, UniProt P10275)
# Sequence (P10275 whole entry): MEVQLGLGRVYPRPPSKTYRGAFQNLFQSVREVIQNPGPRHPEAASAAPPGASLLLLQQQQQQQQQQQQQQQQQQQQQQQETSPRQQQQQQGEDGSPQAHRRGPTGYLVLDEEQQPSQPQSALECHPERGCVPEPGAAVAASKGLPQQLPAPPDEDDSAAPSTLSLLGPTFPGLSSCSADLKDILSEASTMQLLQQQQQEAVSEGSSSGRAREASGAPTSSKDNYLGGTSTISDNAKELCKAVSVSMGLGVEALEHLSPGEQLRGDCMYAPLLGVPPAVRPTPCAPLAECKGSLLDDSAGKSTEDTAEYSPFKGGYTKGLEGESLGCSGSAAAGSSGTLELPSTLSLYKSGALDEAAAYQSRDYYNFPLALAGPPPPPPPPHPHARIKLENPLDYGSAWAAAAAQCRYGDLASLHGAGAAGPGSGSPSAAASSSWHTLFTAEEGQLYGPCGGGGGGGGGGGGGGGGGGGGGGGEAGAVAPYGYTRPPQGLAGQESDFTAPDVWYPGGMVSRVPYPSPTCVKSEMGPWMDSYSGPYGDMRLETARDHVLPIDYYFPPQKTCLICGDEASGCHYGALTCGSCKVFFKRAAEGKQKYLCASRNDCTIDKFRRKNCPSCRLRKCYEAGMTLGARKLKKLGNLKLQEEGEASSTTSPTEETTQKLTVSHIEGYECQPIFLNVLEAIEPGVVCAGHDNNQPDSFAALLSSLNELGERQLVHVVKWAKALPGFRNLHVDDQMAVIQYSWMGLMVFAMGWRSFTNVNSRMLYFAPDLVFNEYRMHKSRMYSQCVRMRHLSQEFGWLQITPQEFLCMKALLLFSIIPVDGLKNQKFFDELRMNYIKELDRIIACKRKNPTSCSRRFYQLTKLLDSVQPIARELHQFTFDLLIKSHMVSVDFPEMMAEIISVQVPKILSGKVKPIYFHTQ
Collected Ki values appear next to each entry.
Measurement label: Ki

# Molecule, Value measured
data = [
    ("O=c1cc(C(F)(F)F)c2cc3c(cc2[nH]1)OCC(C(F)(F)F)N3CC(F)(F)F (racemic)", "8.3 nM"),
    ("COC[C@@H]1COc2cc3[nH]c(=O)cc(C(F)(F)F)c3cc2N1CC(F)(F)F", "9.4 nM"),
    ("O=c1cc(C(F)(F)F)c2cc3c(cc2[nH]1)OC[C@H](C(F)(F)F)N3CC(F)(F)F", "5.9 nM"),
]

###

# Target under test: Androgen receptor (Homo sapiens)
Strictly below 30 nM in EC50: criterion met. Otherwise: criterion not met.

# Compound, Class name
records = [
    ("O=c1cc(C(F)(F)F)c2cc3c(cc2[nH]1)OCC(C(F)F)N3CC(F)(F)F (racemic)", "criterion met"),
    ("O=c1cc(C(F)(F)F)c2cc3c(cc2[nH]1)OC[C@H](CO)N3CC(F)(F)F", "criterion met"),
    ("COC[C@H]1COc2cc3[nH]c(=O)cc(C(F)(F)F)c3cc2N1CC(F)(F)F", "criterion not met"),
    ("CSCC1COc2cc3[nH]c(=O)cc(C(F)(F)F)c3cc2N1CC(F)(F)F (racemic)", "criterion met"),
    ("O=c1cc(C(F)(F)F)c2cc3c(cc2[nH]1)OC[C@@H](CC(F)(F)F)N3CC(F)(F)F", "criterion met"),
    ("O=c1cc(C(F)(F)F)c2cc3c(cc2[nH]1)OC[C@@H](C(F)(F)F)N3CC(F)(F)F", "criterion not met"),
    ("O=c1cc(C(F)(F)F)c2cc3c(cc2[nH]1)OC[C@H](C(F)(F)F)N3CC(F)(F)F", "criterion met"),
    ("COC[C@@H]1COc2cc3[nH]c(=O)cc(C(F)(F)F)c3cc2N1CC(F)(F)F", "criterion met"),
    ("O=c1cc(C(F)(F)F)c2cc3c(cc2[nH]1)OC[C@@H](c1ccccc1)N3CC(F)(F)F", "criterion met"),
    ("O=c1cc(C(F)(F)F)c2cc3c(cc2[nH]1)OCC(C(F)(F)F)N3CC(F)(F)F (racemic)", "criterion met"),
]
